Provide the recorded Ki for the entries that follow.
measurementTarget: OXA-23 (Acinetobacter baumannii, UniProt Q9L4P2)
Sequence (Q9L4P2 18-273): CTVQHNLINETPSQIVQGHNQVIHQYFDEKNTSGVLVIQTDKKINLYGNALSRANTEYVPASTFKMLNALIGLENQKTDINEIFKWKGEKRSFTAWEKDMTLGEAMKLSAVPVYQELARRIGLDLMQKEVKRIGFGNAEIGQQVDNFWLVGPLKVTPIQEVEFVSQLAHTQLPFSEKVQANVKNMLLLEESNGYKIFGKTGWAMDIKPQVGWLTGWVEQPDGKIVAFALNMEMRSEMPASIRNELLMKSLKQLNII
assayExplanation: Inhibition of nitrocefin cleavage by purified OXA-23
conditionSet: nitrocefin reporter substrate; 10 min preincubation at room temperature; read-out: Ki (OXA-23, NCF)

Query block: Hi! What's the reported Ki for O=C(O)c1nccc2c1OB(O)[C@H]1C[C@@H]21 [Compound 20] on OXA-23 (Acinetobacter baumannii, UniProt Q9L4P2)?
Result block: 100 to 1000 nM

Query block: Hi! What's the reported Ki for O=C(O)c1cccc2c1OB(O)CC21CC1 [Compound 14] on OXA-23 (Acinetobacter baumannii, UniProt Q9L4P2)?
Result block: < 100 nM

Query block: Hi! What's the reported Ki for COc1ccc2c(c1C(=O)O)OB(O)[C@@H]1C[C@H]21 [Compound 3] on OXA-23 (Acinetobacter baumannii, UniProt Q9L4P2)?
Result block: < 100 nM

Query block: Hi! What's the reported Ki for O=C(O)c1c(F)ccc2c1OB(O)[C@@H]1C[C@H]21 [Compound 13] on OXA-23 (Acinetobacter baumannii, UniProt Q9L4P2)?
Result block: < 100 nM

Query block: Hi! What's the reported Ki for O=C(O)c1c(F)ccc2c1OB(O)[C@H]1C[C@@H]21 [Compound 12] on OXA-23 (Acinetobacter baumannii, UniProt Q9L4P2)?
Result block: < 100 nM
